# TESTED SYSTEM: T1, human PILRA G78 on cells (human, UniProt Q9UKJ1 20-303)
# T1 construct: wild-type iMicroglia are R78/G78 heterozygous (said in the assay field); also called hPILRA; hPILRA G78
# T1 sequence (Q9UKJ1 20-303 R78G limits assumed): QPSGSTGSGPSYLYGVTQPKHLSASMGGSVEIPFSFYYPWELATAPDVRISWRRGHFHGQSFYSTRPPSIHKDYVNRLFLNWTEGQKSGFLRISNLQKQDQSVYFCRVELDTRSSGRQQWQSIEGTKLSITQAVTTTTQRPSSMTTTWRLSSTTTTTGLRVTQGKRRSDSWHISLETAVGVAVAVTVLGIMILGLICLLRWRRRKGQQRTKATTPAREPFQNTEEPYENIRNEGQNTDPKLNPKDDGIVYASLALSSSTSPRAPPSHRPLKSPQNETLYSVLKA
# PROCEDURE TEXT: flow cytometry on HEK293 cells expressing hPILRA G78
pEC50 values by entry
Please treat pEC50 as minus the base-10 logarithm of the molar concentration.

Some binders with known pEC50 results, for comparison:
Task item: Quick one: pEC50 of Anti-PILRA antibody clone 10 (antibody, V domains shown, also called Ab; Clone 10) VH: EVQLVQSGAEIRKPGESLKISCKGSGYSFTTYWIAWVRQMPGKGLEWMGIIYPGDSDTRYSPSFQGQVTISADKSITTAYLQWSSLKASDTGIYYCARTYYYFSGSHWDAFDIWGQGTMVTVSS VL: DIQMTQSPSSVSAYVGDRVTITCRASQDIRDCLAWYQQKPGKAPKFLIYAASSFQSGVPSGFSGSGSGTDFTLTVTSLQPEDSATYYCQQTHSFPYTFGQGTKLEIK ?
Reply: 8.89

Task item: Quick one: pEC50 of Anti-PILRA antibody clone 2 (antibody, human IgG1, kappa, L234A L235A, V domains shown, also called Ab; Clone 2; Ab.2) VH: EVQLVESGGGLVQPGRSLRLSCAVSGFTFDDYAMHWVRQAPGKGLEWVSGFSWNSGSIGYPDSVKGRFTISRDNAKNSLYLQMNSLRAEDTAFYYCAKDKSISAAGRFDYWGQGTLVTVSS VL: DIQMTQSPSSLSASVGDRVTITCQASRRINNYLNWYQQKPGKAPKLLIYDASNLETGVPSRFTGSGSGTDFTLTISSLQPEDIATYYCQQYDNLPLTFGGGTKVEIKR ?
Reply: 7.90

Turning now to a further binder:
Task item: Quick one: pEC50 of Anti-PILRA antibody clone 6 (antibody, V domains shown, the printed lines of the VL are out of order there) VH: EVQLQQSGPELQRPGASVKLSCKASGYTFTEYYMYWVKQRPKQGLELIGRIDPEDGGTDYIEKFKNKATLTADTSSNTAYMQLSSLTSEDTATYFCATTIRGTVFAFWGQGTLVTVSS VL: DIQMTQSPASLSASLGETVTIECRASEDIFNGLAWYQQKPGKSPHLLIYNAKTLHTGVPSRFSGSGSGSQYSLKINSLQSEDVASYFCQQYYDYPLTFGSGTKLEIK ?
Reply: 8.03
